Recorded growth values for a group of molecules are listed next.
System: LOX IMVI melanoma
Experiment: NCI-60 one-dose screen, 48 h (100 = growth as untreated, 0 = no growth, -100 = all killed)
Details: 10 µM
Compounds without any hit were thinned out: in the full panel of roughly 83,000, 20% have a hit. Active and inactive are the calls of the source. The calls were made as follows: active = growth percent below 10; inactive = the rest.

COc1cc2c3c(n([C@H]4CCOC4)c(=O)c2cc1OC)-c1cc2c(cc1C3=O)OCO2 = 4.78% (active)
CC(=O)C1CCC2C3CC=C4CC(SC(=N)N)CCC4(C)C3CCC12C (stereo not given) = -56% (active)
O=C1c2ccccc2-c2c1c1cccnc1c(=O)n2C[C@H](O)CO = 36.3% (inactive)
Cc1ccc(S(=O)(=O)N/N=C2\CCCc3ccccc32)cc1 = 94.8% (inactive)
Cc1nc2n(c(=O)c1CCN1CCC(c3noc4cc(F)ccc34)CC1)CCC[C@@H]2O = 97.4% (inactive)
CC(=O)C1N=NCC1c1ccccc1 (stereo not given) = 103% (inactive)

Find growth (LOX IMVI melanoma) for the entry CCC1NC(=O)c2cc(S(N)(=O)=O)c(Cl)cc2N1 (stereo not given) 99.9% (inactive)

Param item: CC(C)(C)OC(=O)N1CCc2c(sc3ncnc(N/N=C/c4ccccc4Br)c23)C1 55.5% (inactive)

Param item: CC(C)c1cc(N=O)cc(C(C)C)c1O 96.1% (inactive)

Param item: N#Cc1c(N)nc(-c2cc(F)cc(C(F)(F)F)c2)nc1-c1ccccc1F 54% (inactive)

Param item: CN(C)CCN(Cc1ccccc1)c1ccc2ccccc2n1 88.8% (inactive)

Param item: CCN(CC)CCCC(C)Nc1c2ccc(Cl)cc2nc2ccc(OC)cc12 (stereo not given) -48.1% (active)

Param item: COc1ccc2nc3cc(Cl)ccc3c(Nc3cc(CN4CCCC4)c(O)c(CN4CCCC4)c3)c2n1 -8.24% (active)

Param item: COc1cc(-c2nn(-c3cccc(NC(=O)NCCNS(=O)(=O)c4ccc(Cl)cc4)c3)cc2-c2ccncc2)ccc1Cl -0.864% (active)

Param item: CCOC(=O)c1cc(C(=O)c2cc(OC)c(OC)c(OC)c2)n2ncc3ccccc3c12 66.3% (inactive)

Param item: COc1cc(C(=O)N2CCN(c3cc4c(cc3F)c(=O)c(C(=O)NO)cn4C3CC3)CC2)cc(OC)c1OC 94.1% (inactive)

Param item: Cc1c2cnccc2c(C)c2c1oc1ccccc12 42.1% (inactive)

Param item: Cc1cc(C(C#N)c2ccc(Cl)cc2)c(Cl)cc1NC(=O)c1cc(I)cc(I)c1O (stereo not given) 75.1% (inactive)

Param item: COc1cc(-c2ccc[nH]2)[nH]c1/C=C1\N=C(C)C(C(=O)NC(C)C)=C1C -62.6% (active)

Param item: COc1ccc(C(=O)CSc2nc(-c3cc(OC)ccc3OC)cc(-c3ccc(OC)cc3)c2C#N)cc1 91.4% (inactive)

Param item: COc1ccc2nc(Cl)c(Cn3nnc(Cc4ccccc4)n3)cc2c1 42.9% (inactive)

Param item: NS(=O)(=O)c1ccc(Br)cc1 98.5% (inactive)

Param item: CSc1nc(S(C)(=O)=O)nc2[nH]c(=O)[nH]c12 108% (inactive)

Param item: CC(C)N(CCOc1cccc(-c2nc3sccn3c2-c2ccnc(S(C)(=O)=O)n2)c1)C(C)C 84.3% (inactive)

Hey, just so you know, these numbers are from PubChem BioAssay (NCI).
